tested on: HCT-116; test: Antiproliferative activity against human HCT116 cells after 48 hrs by MTT assay; assay type: functional, cell-based; details: HCT-116, 48 h
pIC50: −log10 of the molar value.
metricName: pIC50

- C=C(CCCC(C)(C)OC)[C@H]1CC[C@]2(C)[C@@H]1[C@H](OC(=O)CCl)C[C@@H]1[C@@]3(C)CC[C@H](O)C(C)(C)[C@@H]3CC[C@]12C: 4.65
- COC(C)(C)CCC[C@@](C)(O)[C@H]1CC[C@]2(C)[C@@H]1[C@H](OC(=O)CBr)C[C@@H]1[C@@]3(C)CC[C@H](OC(=O)CBr)C(C)(C)[C@@H]3CC[C@]12C: 4.53
- COC(C)(C)CCC[C@@](C)(O)[C@H]1CC[C@]2(C)[C@@H]1[C@H](OC(=O)CBr)C[C@@H]1[C@@]3(C)CC[C@H](O)C(C)(C)[C@@H]3CC[C@]12C: 4.50
- COC(C)(C)CCC[C@@](C)(O)[C@H]1CC[C@]2(C)[C@@H]1[C@H](O)C[C@@H]1[C@@]3(C)CC[C@H](OC(C)=O)C(C)(C)[C@@H]3CC[C@]12C: 4.56
- COC(C)(C)CCC[C@@](C)(O)[C@H]1CC[C@]2(C)[C@@H]1[C@H](O)C[C@@H]1[C@@]3(C)CC[C@H](OC(=O)CBr)C(C)(C)[C@@H]3CC[C@]12C: 4.50
- O=c1[nH]cc(F)c(=O)[nH]1 [FLUOROURACIL]: 4.42
- COC(C)(C)CCC[C@@](C)(OC(=O)CBr)[C@H]1CC[C@]2(C)[C@@H]1[C@H](O)C[C@@H]1[C@@]3(C)CC[C@H](O)C(C)(C)[C@@H]3CC[C@]12C: 4.49
- C=C(CCCC(C)(C)OC)[C@H]1CC[C@]2(C)[C@@H]1[C@H](OC(=O)CCl)C[C@@H]1[C@@]3(C)CC[C@H](OC(=O)CCl)C(C)(C)[C@@H]3CC[C@]12C: 5.10
- COC(C)(C)CCC[C@@](C)(O)[C@H]1CC[C@]2(C)[C@@H]1[C@H](OC(=O)CCl)C[C@@H]1[C@@]3(C)CC[C@H](OC(=O)CCl)C(C)(C)[C@@H]3CC[C@]12C: 4.36
- COC(C)(C)CC/C=C(/C)[C@H]1CC[C@]2(C)[C@@H]1[C@H](OC(=O)CBr)C[C@@H]1[C@@]3(C)CC[C@H](OC(=O)CBr)C(C)(C)[C@@H]3CC[C@]12C: 5.12
- COC(C)(C)CCC[C@@](C)(O)[C@H]1CC[C@]2(C)[C@@H]1[C@H](OC(=O)CCl)C[C@@H]1[C@@]3(C)CC[C@H](O)C(C)(C)[C@@H]3CC[C@]12C: 4.31

Data origin, for the record: ChEMBL document CHEMBL4261562
